Target: DPP1 in HL-60 cells (Homo sapiens, UniProt P53634)
Sequence (P53634 25-463): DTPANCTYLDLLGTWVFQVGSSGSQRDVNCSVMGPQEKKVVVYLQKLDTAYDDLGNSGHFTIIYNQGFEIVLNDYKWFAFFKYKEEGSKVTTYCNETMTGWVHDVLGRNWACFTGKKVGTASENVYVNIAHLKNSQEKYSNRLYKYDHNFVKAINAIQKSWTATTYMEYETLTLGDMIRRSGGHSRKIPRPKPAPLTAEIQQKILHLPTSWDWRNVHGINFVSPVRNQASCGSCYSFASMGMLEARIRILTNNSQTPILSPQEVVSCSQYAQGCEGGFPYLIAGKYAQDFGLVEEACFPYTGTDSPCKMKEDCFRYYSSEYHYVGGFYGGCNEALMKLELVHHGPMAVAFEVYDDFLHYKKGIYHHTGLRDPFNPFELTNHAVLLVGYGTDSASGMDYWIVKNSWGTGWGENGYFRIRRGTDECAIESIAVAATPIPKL
Test: DPP1 Cell IC50 assay
Type: cell-based
Set-up: host or cells: HL-60 cells
Conditions: 60 min pre-incubation, H-Gly-Phe-AFC substrate, average of n runs, read-out: Avg. IC50 (DPP1 Cell IC50 value ranges)
Below, each entry is listed alongside its reported IC50.

Examples with answers:
1. COC1CO[C@H](C(=O)N[C@H](C#N)Cc2ccc(-c3ccc4c(c3)C3(CC4)CCN(C)CC3)cc2F)CNC1C (stereo partly shown): > 2.5 nM
2. Cc1csc(-c2ccc(C[C@@H](C#N)NC(=O)[C@@H]3CNCCCO3)cc2)n1: > 2.5 nM
3. CO[C@H]1CCO[C@H](C(=O)NC(C#N)Cc2cc3c(cc2F)-c2cc(C4COC4)c(F)cc2CO3)CNC1 (mixture of isomers): 1 to 2.5 nM

Looking up `CN1CCC(N2CC[C@]3(COCc4ccc(-c5ccc(C[C@@H](C#N)NC(=O)[C@@H]6CNCCCO6)cc5)cc43)C2)CC1` , I see its IC50 listed as > 2.5 nM

Origin of the recorded values: patent US20260008760A1
